Origin of values: patent EP4714948A1

# test-protocol: Pharmacokinetic test on male SD rats
# Type: in vivo
# cond: rat, po, gavage (p.o.), 10 mg/kg, plasma
# Protocol: Healthy adult SD rats, male, a total of 3, 6-8 weeks old; Weighing 200-300 grams. EDTA-Na2 anticoagulant: 11.2 g of EDTA-Na2 was weighted and placed into a reagent bottle. […] A quantitative detection method for the test compound was established using a Shimadzu liquid chromatography system and a Triple Quad™ 6500+ AB mass spectrometry (MS) system. […] The main pharmacokinetic parameters were calculated using the non-compartmental model (NCA) with the WinNonlin Phoenix software. […]
value-kind: MRT last (h)

1) CCc1cc(Nc2ncc(Cl)c(Nc3ccccc3C(=O)NC)n2)c(OC)cc1N1CCN(C(=O)CN2CCC(c3ccc(NC4CCC(=O)NC4=O)cc3)CC2)[C@@H](C)C1 (some centres unmarked) [Compound T-078]	9.06
2) CCc1cc(Nc2ncc(Cl)c(Nc3ccccc3C(=O)NC)n2)c(OC)cc1N1CCN(C(=O)CN2CCC(c3ccc4c(N5CCC(=O)NC5=O)nn(C)c4c3)C(F)(F)C2)CC1 (centres unmarked) [Compound T-013]	6.27
3) CCc1cc(Nc2ncc(Cl)c(Nc3ccccc3C(=O)NC)n2)c(OC)cc1N1CCN(C(=O)CN2CCN(c3ccc(NC4CCC(=O)NC4=O)cc3F)CC2)CC1 (centres unmarked) [Compound T-029]	5.65
4) CCc1cc(Nc2ncc(Cl)c(Nc3ccccc3C(=O)NC)n2)c(OC)cc1N1CCN(CCN2CCC(c3ccc(NC4CCC(=O)NC4=O)cc3)CC2)CC1 (centres unmarked) [Compound T-023]	10
5) CCc1cc(Nc2ncc(Cl)c(Nc3ccccc3C(=O)NC)n2)c(OC)cc1N1CCN(C(=O)CN2CCC(c3ccc(NC4CCC(=O)NC4=O)cc3)CC2)[C@H](C)C1 (some centres unmarked) [Compound T-079]	4.67
